- Tested on: axenic iRFP-L. infantum amastigotes from bone marrow cells
- run-description: Axenic amastigote viability assay (iRFP fluorescence, first screening)
- Assay type: cell-based
- measurement-conditions: Leishmania infantum, Bone marrow cell, cut-off 25 µM, 72 h, read-out: Axenic Amastigotes (concentration with inhibition)

[
  {
    "molecule": "Cc1ccc2c(c1)C1Nc3ncccc3[C@@H](c3ccccc3)C1CO2 (stereo partly drawn) [Compound 10c]",
    "minimal effective concentration": "> 25 µM"
  },
  {
    "molecule": "c1ccc([C@@H]2c3cccnc3NC3c4ccccc4OCC32)cc1 (stereo partly drawn) [Compound 10a]",
    "minimal effective concentration": "> 25 µM"
  },
  {
    "molecule": "COc1ccc2c(n1)[C@@H](c1ccccc1)C1C(=O)Oc3ccccc3C1N2 (stereo partly drawn) [Compound 6c]",
    "minimal effective concentration": "> 25 µM"
  },
  {
    "molecule": "COc1ccc2c(n1)[C@@H](c1ccccc1)C1COc3ccccc3C1N2 (stereo partly drawn) [Compound 4c]",
    "minimal effective concentration": "> 25 µM"
  },
  {
    "molecule": "Cc1ccc(S(=O)(=O)N2Cc3c(nc4ncc(Br)cc4c3-c3ccccc3)-c3ccccc32)cc1 [Compound 15b]",
    "minimal effective concentration": "< 25 µM"
  },
  {
    "molecule": "O=C1Oc2ccccc2C2Nc3cccnc3[C@@H](c3ccccc3)C12 (stereo partly drawn) [Compound 6a]",
    "minimal effective concentration": "> 25 µM"
  },
  {
    "molecule": "Cc1ccc(S(=O)(=O)N2Cc3c(nc4cccnc4c3-c3ccccc3)-c3ccccc32)cc1 [Compound 9a]",
    "minimal effective concentration": "> 25 µM"
  },
  {
    "molecule": "Brc1ccc2nc3c(c(-c4ccccc4)c2n1)COc1ccccc1-3 [Compound 5b]",
    "minimal effective concentration": "> 25 µM"
  },
  {
    "molecule": "O=c1oc2ccccc2c2nc3ncc(Br)cc3c(-c3ccccc3)c12 [Compound 13b]",
    "minimal effective concentration": "< 25 µM"
  }
]

---

- run-description: Drug tolerance in murine intestinal organoids (alamarBlue)
- Format: cell-based, mouse
- measurement-conditions: Balb/c, mouse, murine intestinal organoids, 25 µM, 72 h exposure
attribute-measured: viability at 72 h, 25 µM (%)

[
  {
    "molecule": "O=c1oc2ccccc2c2nc3ncc(Br)cc3c(-c3ccccc3)c12 [Compound 13b]",
    "measure-unit": "%",
    "qualifying-sign": "=",
    "data-value": 90
  },
  {
    "molecule": "Cc1ccc(S(=O)(=O)N2CC3C(Nc4ncccc4C3c3ccccc3)c3ccccc32)cc1 (centres unmarked) [Compound 14a]",
    "measure-unit": "%",
    "qualifying-sign": "=",
    "data-value": 90
  },
  {
    "molecule": "c1ccc(-c2c3c(nc4ncccc24)-c2ccccc2OC3)cc1 [Compound 11a]",
    "measure-unit": "%",
    "qualifying-sign": "=",
    "data-value": 92
  },
  {
    "molecule": "COc1ccc2nc3c(c(-c4ccccc4)c2n1)c(=O)oc1ccccc13",
    "measure-unit": "%",
    "qualifying-sign": "=",
    "data-value": 99
  },
  {
    "molecule": "Cc1ccc(S(=O)(=O)N2CC3C(Nc4cccnc4[C@H]3c3ccccc3)c3ccccc32)cc1 (some centres unmarked)",
    "measure-unit": "%",
    "qualifying-sign": "=",
    "data-value": 93
  },
  {
    "molecule": "O=c1oc2ccccc2c2nc3ncccc3c(-c3ccccc3)c12 [Compound 13a]",
    "measure-unit": "%",
    "qualifying-sign": "=",
    "data-value": 87
  },
  {
    "molecule": "COc1ccc2c(n1)[C@@H](c1ccccc1)C1CN(S(=O)(=O)c3ccc(C)cc3)c3ccccc3C1N2 (some centres unmarked)",
    "measure-unit": "%",
    "qualifying-sign": ">",
    "data-value": 100
  },
  {
    "molecule": "Fc1ccc2c(c1)C1Nc3ncccc3[C@@H](c3ccccc3)C1CO2 (some centres unmarked) [Compound 10b]",
    "measure-unit": "%",
    "qualifying-sign": "=",
    "data-value": 99
  },
  {
    "molecule": "Cc1ccc(S(=O)(=O)N2CC3C(Nc4ccc(Br)nc4[C@H]3c3ccccc3)c3ccccc32)cc1 (some centres unmarked)",
    "measure-unit": "%",
    "qualifying-sign": "=",
    "data-value": 4
  },
  {
    "molecule": "O=C1Oc2ccccc2C2Nc3ccc(Br)nc3[C@@H](c3ccccc3)C12 (some centres unmarked)",
    "measure-unit": "%",
    "qualifying-sign": "=",
    "data-value": 72
  },
  {
    "molecule": "Cc1ccc(S(=O)(=O)N2Cc3c(nc4ncc(Br)cc4c3-c3ccccc3)-c3ccccc32)cc1 [Compound 15b]",
    "measure-unit": "%",
    "qualifying-sign": "=",
    "data-value": 58
  }
]
